# Tested on: 349418-098-R-PDC complex spheroid viability
# protocol_notes: Anticancer human tumor 349418-098-R-PDC patient-derived lung adenocarcinoma cell line growth inhibition [RAS]
# measurement_setup: second compound 0.01 µM; first compound 3.16 µM; stronger effect = lower value
quantity: viability, T/C (%)
Answers are plain numbers, in %.

molecule | viability, T/C (%)
C[C@@H](NC(=O)c1ncnc(N)c1Cl)c1ncc(C(=O)Nc2cc(C(F)(F)F)c(Cl)cn2)s1 + C=CC(=O)N1CCN(c2nc(OCC3CCCN3C)nc3c(F)c(-c4nc(N)cc(C)c4C(F)(F)F)c(Cl)cc23)C(C)C1 | 41.3

Give viability, T/C for each listed item.
1. CC1(O)CCCC1n1c(=O)c(C(F)F)cc2cnc(NC3CCN(S(C)(=O)=O)CC3)nc21 (stereo not drawn) + C=CC(=O)N1CCN(c2nc(OCC3CCCN3C)nc3c(F)c(-c4nc(N)cc(C)c4C(F)(F)F)c(Cl)cc23)C(C)C1
2. CC(Nc1ccc2c(c1)OCCn1cc(N3C(=O)OCC3C(F)F)nc1-2)C(N)=O (stereo not drawn) + C=CC(=O)N1CCN(c2nc(OCC3CCCN3C)nc3c(F)c(-c4nc(N)cc(C)c4C(F)(F)F)c(Cl)cc23)C(C)C1

Outgoing:
1. 15.8
2. 14.9

====

Hi there, I'd appreciate the recorded pIC50 for every entry that follows.
# System: 349418-098-R-PDC complex spheroid viability
# protocol_notes: Anticancer human tumor 349418-098-R-PDC cell line growth inhibition [RAS];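 also: spheroids exposed to compound for seven days before viability readout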
# measurement_setup: curve of first compound; second compound 3.16 µM
pIC50: −log10 of the molar value.

compound | pIC50
CC(=O)OC12COC1CC(O)C1(C)C(=O)C(O)C3=C(C)C(OC(=O)C(O)C(NC(=O)OC(C)(C)C)c4ccccc4)CC(O)(C(OC(=O)c4ccccc4)C21)C3(C)C (stereo not given) + C#Cc1c(F)ccc2cc(O)cc(-c3ncc4c(N5CC6CCC(C5)N6)nc(OCC56CCCN5CC(F)C6)nc4c3F)c12 | > 7.50
CC1(C)CCC(Nc2ncc(C(F)(F)F)c(-c3c[nH]c4c(P(C)(C)=O)c(C#N)ccc34)n2)CN1 (stereo not given) + C#Cc1c(F)ccc2cc(O)cc(-c3ncc4c(N5CC6CCC(C5)N6)nc(OCC56CCCN5CC(F)C6)nc4c3F)c12 | > 9.02
Nc1ccn(C2OC(CO)C(O)C2(F)F)c(=O)n1 (stereo not given) + C#Cc1c(F)ccc2cc(O)cc(-c3ncc4c(N5CC6CCC(C5)N6)nc(OCC56CCCN5CC(F)C6)nc4c3F)c12 | > 8.50
CC(C)n1nc(-c2ccc3oc(N)nc3c2)c2c(N)ncnc21 + C#Cc1c(F)ccc2cc(O)cc(-c3ncc4c(N5CC6CCC(C5)N6)nc(OCC56CCCN5CC(F)C6)nc4c3F)c12 | 8.43

Here's the next entry for you.
Summary line: O=C(c1ccc(F)c(F)c1Nc1ccc(I)cc1F)N1CC(O)([C@@H]2CCCCN2)C1 + C#Cc1c(F)ccc2cc(O)cc(-c3ncc4c(N5CC6CCC(C5)N6)nc(OCC56CCCN5CC(F)C6)nc4c3F)c12 , 349418-098-R-PDC complex spheroid viability, reported pIC50 = > 8.50

====

Hi there, I'd appreciate the recorded viability, T/C for every entry that follows.
# System: 349418-098-R-PDC complex spheroid viability
# protocol_notes: Anticancer human tumor 349418-098-R-PDC cell line growth inhibition [RAS];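 also: spheroids exposed to compound for seven days before viability readout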
# measurement_setup: second compound 0.00949 µM; first compound 1 µM; stronger effect = lower value

In the examples that follow, each entry is paired with its recorded viability, T/C.
compound | quantity | endpoint_result
NC1c2ccccc2OC12CCN(c1cnc3c(N4CCCc5ncccc54)n[nH]c3n1)CC2 (stereo not given) + CCn1c(-c2cc(N3CCN(C)CC3)cnc2C(C)OC)c2c3cc(ccc31)-c1csc(n1)CC(NC(=O)C1CC1C)C(=O)N1CCCC(N1)C(=O)OCC(C)(C)C2 | viability, T/C | 98%
Nc1ccn(C2OC(CO)C(O)C2(F)F)c(=O)n1 (stereo not given) + CCn1c(-c2cccnc2C(C)OC)c2c3cc(ccc31)N1CCOC(CC(NC(=O)C(C(C)C)N(C)C(=O)C3(F)CCN(C(=O)C#CC(C)(C)N(C)C)CC3)C(=O)N3CCCC(N3)C(=O)OCC(C)(C)C2)C1 | viability, T/C | 3.73%
C[C@@H](NC(=O)c1ncnc(N)c1Cl)c1ncc(C(=O)Nc2cc(C(F)(F)F)c(Cl)cn2)s1 + CCn1c(-c2cccnc2C(C)OC)c2c3cc(ccc31)N1CCOC(CC(NC(=O)C(C(C)C)N(C)C(=O)C3(F)CCN(C(=O)C#CC(C)(C)N(C)C)CC3)C(=O)N3CCCC(N3)C(=O)OCC(C)(C)C2)C1 | viability, T/C | 47.5%
C=CC(=O)Nc1cc(Nc2nccc(-c3cn(C)c4ccccc34)n2)c(OC)cc1N(C)CCN(C)C + CCn1c(-c2cccnc2C(C)OC)c2c3cc(ccc31)N1CCOC(CC(NC(=O)C(C(C)C)N(C)C(=O)C3(F)CCN(C(=O)C#CC(C)(C)N(C)C)CC3)C(=O)N3CCCC(N3)C(=O)OCC(C)(C)C2)C1 | viability, T/C | 75.9%

Here's the next entry for you.
The value of viability, T/C measured for the compound C=CC(=O)Nc1cc(Nc2nccc(-c3cn(C)c4ccccc34)n2)c(OC)cc1N(C)CCN(C)C + CCn1c(-c2cc(N3CCN(C)CC3)cnc2C(C)OC)c2c3cc(ccc31)-c1csc(n1)CC(NC(=O)C1CC1C)C(=O)N1CCCC(N1)C(=O)OCC(C)(C)C2 turned out to be 75.7%
